- tested on: T1, Recombinant Human FGFR2 alpha (IIIc) Fc Chimera Protein, CF (R&D systems, 712-FR-050) (human, UniProt P21802 22-377)
- T1 construct: bought; not shown: Fc part of the chimera
- T1 sequence (P21802 22-377, change not shown): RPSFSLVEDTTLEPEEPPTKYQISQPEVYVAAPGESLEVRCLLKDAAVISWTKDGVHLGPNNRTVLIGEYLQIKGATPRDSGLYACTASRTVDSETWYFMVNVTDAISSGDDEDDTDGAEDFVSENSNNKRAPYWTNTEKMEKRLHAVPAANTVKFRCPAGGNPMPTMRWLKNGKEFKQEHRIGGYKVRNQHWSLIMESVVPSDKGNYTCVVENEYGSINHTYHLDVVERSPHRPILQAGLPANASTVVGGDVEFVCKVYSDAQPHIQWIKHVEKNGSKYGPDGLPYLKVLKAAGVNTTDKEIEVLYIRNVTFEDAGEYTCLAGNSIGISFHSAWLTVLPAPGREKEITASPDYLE
- experiment description: ELISA on plate-bound FGFR2-Fc
Bridge positions count the residues as written; N and C are the ends. Ends that are not written are not given here. COCH2 = acetyl group that carries the bridge
endpoint label: ELISA luminescence signal at 10 nmol/L peptide, relative to SEQ ID NO: 47 (=1)

>>> result("YCEENYLDPSQYQYFIYFK(COCH2)Y (thioether 2-19 (inferred)) [cyclic peptide SEQ ID NO: 246]")
"≥ 0.7 ratio"
>>> result("YCEENYLYPEQYQYFIYFK(COCH2)Y (thioether 2-19 (inferred)) [cyclic peptide SEQ ID NO: 212]")
"≥ 0.7 ratio"
>>> result("YCEENALDPEQYQYFIYFK(COCH2)Y (thioether 2-19 (inferred)) [cyclic peptide SEQ ID NO: 326]")
"0.1 to 0.5 ratio"
>>> result("QCYQNWYLYQYLVERYYK(COCH2)D (thioether 2-18) [cyclic peptide SEQ ID NO: 116]")
"0.1 to 0.5 ratio"
>>> result("QCTYLAQYLVERYHLTK(COCH2)T (thioether 2-17) [cyclic peptide SEQ ID NO: 135]")
"0.1 to 0.5 ratio"
>>> result("YCEENHLDPEQYQYFIYFK(COCH2)Y (thioether 2-19 (inferred)) [cyclic peptide SEQ ID NO: 194]")
"≥ 0.7 ratio"
>>> result("KCPANFINPVQWRYFQHYKN (thioether ring (C)-(K(acetyl))) [cyclic peptide SEQ ID NO: 55]")
"≥ 0.7 ratio"
>>> result("YCEENYVDPEQYQYFIYFK(COCH2)Y (thioether 2-19 (inferred)) [cyclic peptide SEQ ID NO: 196]")
"≥ 0.7 ratio"
>>> result("ECPWNFVNQLQWQYFITYK(COCH2)V (thioether 2-19) [cyclic peptide SEQ ID NO: 129]")
"≥ 0.7 ratio"
>>> result("YCQENYLDPEQYQYFIYFK(COCH2)Y (thioether 2-19) [cyclic peptide SEQ ID NO: 160]")
"≥ 0.7 ratio"
>>> result("YCEENYLDTEQYQYFIYFK(COCH2)Y (thioether 2-19 (inferred)) [cyclic peptide SEQ ID NO: 231]")
"≥ 0.7 ratio"
>>> result("YCNYEWDGARRQIAYYRIFLK(COCH2)L (thioether 2-21 (inferred)) [cyclic peptide SEQ ID NO: 414]")
"0.1 to 0.5 ratio"
>>> result("HCQPEYELYYIYLYLNALK(COCH2)I (thioether 2-19) [cyclic peptide SEQ ID NO: 112]")
"0.1 to 0.5 ratio"
>>> result("QCLQDLYRYLYLLK(COCH2)A (thioether 2-14) [cyclic peptide SEQ ID NO: 374]")
"0.1 to 0.5 ratio"
>>> result("PCDPLNLQQWYTAVYQLWHK(COCH2)R (thioether 2-20 (inferred)) [cyclic peptide SEQ ID NO: 426]")
"0.1 to 0.5 ratio"
>>> result("QCPQNFINPVHWRYFQHYK(COCH2)N (thioether 2-19 (inferred)) [cyclic peptide SEQ ID NO: 87]")
"≥ 0.7 ratio"
>>> result("YCEDNYLDPEQYQYFIYFK(COCH2)Y (thioether 2-19 (inferred)) [cyclic peptide SEQ ID NO: 178]")
"≥ 0.7 ratio"
>>> result("YCEENYLDPEQYQYFIYYK(COCH2)Y (thioether 2-19 (inferred)) [cyclic peptide SEQ ID NO: 306]")
"≥ 0.7 ratio"
>>> result("YCEENYLDPEQYQMFIYFK(COCH2)Y (thioether 2-19) [cyclic peptide SEQ ID NO: 357]")
"0.1 to 0.5 ratio"
>>> result("HCLHYLYQYLYTVK(COCH2)Y (thioether 2-14) [cyclic peptide SEQ ID NO: 377]")
"0.1 to 0.5 ratio"
>>> result("PCEQQNFHSVIQWHFFAQYK(COCH2)N (thioether 2-20 (inferred)) [cyclic peptide SEQ ID NO: 406]")
"≥ 0.7 ratio"
>>> result("YCEENYLDPEQHQYFIYFK(COCH2)H (thioether 2-19) [cyclic peptide SEQ ID NO: 397]")
"≥ 0.7 ratio"
>>> result("DCQLWYLYQYLIVK(COCH2)A (thioether 2-14) [cyclic peptide SEQ ID NO: 371]")
"0.1 to 0.5 ratio"
>>> result("SCPQNFINPVQWRYFQHYK(COCH2)N (thioether 2-19 (inferred)) [cyclic peptide SEQ ID NO: 81]")
"≥ 0.7 ratio"

Data provenance is patent US20260008815A1.
